Data provenance is patent US9745283B2.

As shown below, each of these molecules has a reported IC50 value.
Molecular target: recombinant human baculovirus-expressed cMET (Homo sapiens (Human))
Sequence (P08581 25-1390): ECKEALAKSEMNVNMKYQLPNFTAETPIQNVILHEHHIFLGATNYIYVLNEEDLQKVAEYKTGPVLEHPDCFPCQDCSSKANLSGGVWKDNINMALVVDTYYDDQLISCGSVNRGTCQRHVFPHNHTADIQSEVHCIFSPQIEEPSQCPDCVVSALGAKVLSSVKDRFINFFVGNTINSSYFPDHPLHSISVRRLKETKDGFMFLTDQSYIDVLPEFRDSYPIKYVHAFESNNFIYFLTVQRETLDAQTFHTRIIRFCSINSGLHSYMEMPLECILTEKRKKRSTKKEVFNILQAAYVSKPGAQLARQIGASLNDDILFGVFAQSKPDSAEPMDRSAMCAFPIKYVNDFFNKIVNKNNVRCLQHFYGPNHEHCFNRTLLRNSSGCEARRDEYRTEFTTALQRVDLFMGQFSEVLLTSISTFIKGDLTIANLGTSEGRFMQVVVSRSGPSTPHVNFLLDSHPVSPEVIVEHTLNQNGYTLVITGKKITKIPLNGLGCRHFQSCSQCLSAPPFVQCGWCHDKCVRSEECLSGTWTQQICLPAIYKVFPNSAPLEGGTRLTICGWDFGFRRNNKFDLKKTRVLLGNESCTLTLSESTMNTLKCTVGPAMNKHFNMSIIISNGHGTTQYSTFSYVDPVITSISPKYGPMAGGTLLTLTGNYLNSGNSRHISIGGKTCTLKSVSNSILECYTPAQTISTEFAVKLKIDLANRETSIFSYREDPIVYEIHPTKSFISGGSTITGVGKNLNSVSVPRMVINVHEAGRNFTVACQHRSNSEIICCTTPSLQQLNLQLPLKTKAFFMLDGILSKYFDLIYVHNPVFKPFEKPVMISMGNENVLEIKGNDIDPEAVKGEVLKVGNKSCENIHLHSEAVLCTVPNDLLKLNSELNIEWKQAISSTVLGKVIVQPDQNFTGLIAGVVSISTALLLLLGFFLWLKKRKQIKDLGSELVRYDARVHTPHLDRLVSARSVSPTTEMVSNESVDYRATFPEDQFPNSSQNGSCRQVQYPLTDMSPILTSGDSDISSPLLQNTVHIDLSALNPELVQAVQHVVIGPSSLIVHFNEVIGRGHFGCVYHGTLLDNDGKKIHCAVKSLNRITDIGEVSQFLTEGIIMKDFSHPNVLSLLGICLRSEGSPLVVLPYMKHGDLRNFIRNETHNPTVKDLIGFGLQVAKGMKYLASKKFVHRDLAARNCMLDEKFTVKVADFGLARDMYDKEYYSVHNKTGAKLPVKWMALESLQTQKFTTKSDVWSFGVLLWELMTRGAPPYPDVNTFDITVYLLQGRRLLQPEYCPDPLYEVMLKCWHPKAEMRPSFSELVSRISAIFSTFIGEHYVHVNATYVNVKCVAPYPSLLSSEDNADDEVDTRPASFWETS
Assay: C-MET Kinase Assay (HTRF KinEASE)
Assay type: biochemical
Settings: average of two or more determinations; read-out: c-MET IC50
Experimental: The cMET kinase assay was performed in 384-well Fluotrac™ 200 HiBase microplates using the HTRF KinEASE™ assay described above for AXL except that the assay volume was reduced to half. Enzyme concentration was 8 ng/mL of recombinant human baculovirus-expressed cMET while the substrate concentrations were 0.1 μM and 0.02 μM for the biotinylated peptide and ATP, respectively. […]

smiles_data=COc1cc2c(Oc3ccc(NC(=O)c4cn(C(C)C)c(=O)n(-c5ccc(F)cc5)c4=O)cc3F)ccnc2cc1O result_type=IC50 experimental_value="< 10 nM"
smiles_data=CCn1cc(C(=O)Nc2ccc(Oc3ccnc4cc(OCCOC)c(OC)cc34)c(F)c2)c(=O)n(-c2ccc(F)cc2)c1=O result_type=IC50 experimental_value="10 to 100 nM"
smiles_data=COc1cc2nccc(Oc3ccc(NC(=O)c4cn(C)c(=O)n(-c5ccc(F)cc5)c4=O)cc3)c2cc1OC result_type=IC50 experimental_value="10 to 100 nM"
smiles_data=COc1cc2nccc(Oc3ccc(NC(=O)c4cn(C)c(=O)n(-c5ccc(F)cc5)c4=O)c(F)c3F)c2cc1OC result_type=IC50 experimental_value="< 10 nM"

// query Quickly give me recorded IC50 for `CCn1cc(C(=O)Nc2ccc(Nc3ccnc4cc(OC)c(OC)cc34)cc2)c(=O)n(-c2ccc(F)cc2)c1=O`
// result 101 to 1000 nM

// query Quickly give me recorded IC50 for `CCOc1cc2nccc(Oc3ccc(NC(=O)c4cn(CC)c(=O)n(-c5ccc(F)cc5)c4=O)cc3F)c2cc1OCC`
// result 10 to 100 nM

// query Please list IC50 recorded for the molecule `COc1cc2nccc(Oc3ccc(NC(=O)c4cn(CCO)c(=O)n(-c5ccc(F)cc5)c4=O)cc3)c2cc1OC`
// result < 10 nM
